assayed_target: GSK3b (Homo sapiens)
Sequence (P49841 whole entry, species assumed): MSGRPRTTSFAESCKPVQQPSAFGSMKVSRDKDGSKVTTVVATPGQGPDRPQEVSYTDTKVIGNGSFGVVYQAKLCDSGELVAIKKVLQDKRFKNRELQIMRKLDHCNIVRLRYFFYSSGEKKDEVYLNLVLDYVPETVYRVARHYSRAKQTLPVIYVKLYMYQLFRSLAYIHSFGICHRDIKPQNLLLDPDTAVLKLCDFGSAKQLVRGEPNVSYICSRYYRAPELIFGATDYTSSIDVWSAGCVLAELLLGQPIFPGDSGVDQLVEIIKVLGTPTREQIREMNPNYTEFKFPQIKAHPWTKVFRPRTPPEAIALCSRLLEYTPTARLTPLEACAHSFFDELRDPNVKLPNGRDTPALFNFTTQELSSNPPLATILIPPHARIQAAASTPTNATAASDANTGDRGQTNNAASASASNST
method: Kinase assay (radioactive phosphate incorporation), GSK-3b
Type: biochemical
cond: read-out: Kinase Inhibition pIC50 GSK-3b (converted)
metric_name: IC50 (µM)

[[record]]
molecule = "CNc1nc(C)c(-c2ccnc(Nc3cccc(S(N)(=O)=O)c3)n2)s1 [Compound 19]"
assayed_target = "GSK3b (Homo sapiens)"
units_text = "µM"
reading = 0.158


1: Cc1nc(C)c(-c2ccnc(Nc3cccc(S(C)(=O)=O)c3)n2)s1 [Compound 4]
2: CCNc1nc(C)c(-c2ccnc(Nc3cccc(CNS(C)(=O)=O)c3)n2)s1 [Compound 5]
3: Cc1ccc(Nc2nccc(-c3sc(NC(C)(C)C)nc3C)n2)cc1[N+](=O)[O-] [Compound 2]
Input: Hi! Can you put these in order of IC50, lowest number first? Output spec: labels arranged per the requested ranking.
Output: 2, 1, 3
(2: 0.2 µM, 1: 0.398 µM, 3: 0.631 µM)

Just for reference, patent US20090137572A1 is where these values come from.
